# Target Of Assay: Bovine PNP (Bos taurus, UniProt P55859)
# Sequence (P55859 whole entry): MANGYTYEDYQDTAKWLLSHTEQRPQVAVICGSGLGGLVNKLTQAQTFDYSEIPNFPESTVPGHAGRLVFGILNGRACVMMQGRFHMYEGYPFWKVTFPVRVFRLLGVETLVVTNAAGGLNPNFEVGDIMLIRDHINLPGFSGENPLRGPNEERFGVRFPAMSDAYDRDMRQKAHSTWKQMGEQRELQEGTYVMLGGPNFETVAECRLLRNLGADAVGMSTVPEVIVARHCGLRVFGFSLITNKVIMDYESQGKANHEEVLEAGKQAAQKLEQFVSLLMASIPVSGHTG
# Run Description: PNP inhibition, xanthine oxidase coupled assay
# Assay type: biochemical
# Assay Setup: inhibition constant Ki; inosine Km 34 μM; read-out: Ki Bovine PNP
Structures can show the parent of a compound that is named as a salt.
Reported Property: Ki (nM)
Please respond with the number in nM and leave the unit unwritten.

-- ask What value of Ki has been recorded for this entry: O=c1[nH]cnc2c(CN3[C@H](CO)C[C@H]3CO)c[nH]c12 (racemic) [(±)-37, hydrochloride]
-- reply 360

-- ask What do you get for O=c1[nH]cnc2c(CN3CC(CO)C3)c[nH]c12 [Compound 19] ?
-- reply 4.8

-- ask What do you get for O=c1[nH]cnc2c(CN3[C@H](CO)C[C@@H]3CO)c[nH]c12 [Compound 36, hydrochloride] ?
-- reply 16
